// data source = BigSolDB 2.1

Settings: in acetone, 283.15 K
ASSAY_ENDPOINT: solubility (mole fraction)

May I ask what solubility (mole fraction) has been recorded for Cc1cc(C)c(C(=O)P(=O)(c2ccccc2)c2ccccc2)c(C)c1 ?
0.101

---

Settings: in acetone, 278.15 K
ASSAY_ENDPOINT: solubility (mole fraction)
Lab note: record just the number, no unit beside it.

Given the molecule Cc1cc(C)c(C(=O)P(=O)(c2ccccc2)c2ccccc2)c(C)c1 , what is its reported solubility (mole fraction)?
0.0844

---

Conditions: in ethyl acetate, 283.15 K
ASSAY_ENDPOINT: solubility (mole fraction)
Simply state the number, no unit and no words.

Entry under review: Cc1cc(C)c(C(=O)P(=O)(c2ccccc2)c2ccccc2)c(C)c1 . Reported solubility (mole fraction)?
0.0621
